Values compiled from patent US11051515B2.

Each entry below carries its reported Post-emergence action against ABUTH (herbicidal action in percent).
# Tested on: ABUTH
# test.method.notes: Post-emergence action against ABUTH
# Assay type: in vivo, Abutilon theophrasti
# experimental.context: post-emergence, dosage 80 g/ha, visual assessment about 3 weeks after treatment vs untreated controls
Your answer is read as %, so omit the unit and give the number.

Guide cases for Post-emergence action against ABUTH (herbicidal action in percent), answers given:
molecule="CCn1nnnc1NC(=O)c1ccc(C(F)(F)F)c(C(=O)C2CCC2)c1Cl [2-153]" system_under_test=ABUTH test_result=100
molecule="CCn1nnnc1NC(=O)c1ccc(C(F)(F)F)c(C(=O)C2(C)CC2)c1Cl [2-147]" system_under_test=ABUTH test_result=90
molecule="CCn1nnnc1NC(=O)c1ccc(C(F)(F)F)c(C(C)=O)c1Br [2-195]" system_under_test=ABUTH test_result=80

We next turn to a different molecule, shown below.
Exercise: Complete the entry with Post-emergence action against ABUTH (herbicidal action in percent) for CCn1nnnc1NC(=O)c1ccc(C(F)F)c(C(=O)C2CC2)c1SC [2-67]
Solution: 100
